target: human full-length CD33 (CD33^FL) (UniProt P20138 18-364); assay: SPR (Carterra); 4 µg/mL
Sequence (P20138 18-364): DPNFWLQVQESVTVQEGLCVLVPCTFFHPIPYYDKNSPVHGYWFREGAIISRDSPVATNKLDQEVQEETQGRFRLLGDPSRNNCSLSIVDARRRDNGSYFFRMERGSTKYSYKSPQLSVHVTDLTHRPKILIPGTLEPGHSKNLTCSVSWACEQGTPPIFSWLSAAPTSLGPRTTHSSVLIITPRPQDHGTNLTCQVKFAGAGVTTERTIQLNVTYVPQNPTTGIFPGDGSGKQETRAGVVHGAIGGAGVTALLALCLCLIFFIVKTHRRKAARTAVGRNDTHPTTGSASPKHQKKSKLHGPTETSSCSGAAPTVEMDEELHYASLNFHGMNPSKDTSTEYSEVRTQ
pKd: −log10 of the molar value.

- Binder: "2D3 antibody (human CD33V-set antibody clone, hybridoma-derived) (antibody, V domains shown) VH: EVQLLESGGGLVQPGGSLSLSCAASGFTFSIYAMSWVRQAPGKGLEWVSAISDSGGTTYYADSVKGRFTISRDNSKNMLYLEMNSLRAEDTAIYYCAKRTRYFNGMDVWGQGTTVTVSS VL: EIVMTQSPATLSLSPGERATLSCRASQSGSSSFLSWYQQKPGQAPRLLIYGASTRATGIPARFSGSGSGTDFTLTISSLQPEDFAVYYCQQDYNLPFTFGPGTKVDIK"
  pKd: 7.57
- Binder: "1H8 antibody (human CD33V-set antibody clone, hybridoma-derived) (antibody, V domains shown) VH: QVQLVESGGGVVQPGGSLRLSCAASGFTFGSYGMHWVRQAPGKGLEWVAVIWYDGSNEYYADSVKGRFTVSRDNSKHTLYLQMNRLRAEDTAVYYCARDLDYDSSGGDYWGQGILVLVSS VL: EIVLTQSPDFQSVTPKEKVTITCRASQNIGGNLHWYQQKPDQSPKLLIRYATQPFSGVPSRFGGSGSGTDFTLTINSLEAEDAATYYCHQSSSLPLTFGGGTKVEIK"
  pKd: 7.40
- Binder: "1A9 antibody (human CD33^PAN antibody clone, hybridoma-derived) (antibody, V domains shown) VH: EVQLVESGGGLVQPGGSLRLSCAASGFTFSIYDMHWVRQATGKGLEWVSAIGTAGDTYYAGSVKGRFTISRENAKNSLYLQMNSLRAGDTAVYYCAREYSGYYFDYWGQGTLVTVSS VL: AIQMTQSPSSLSASVGDRVTITCRASQDIRNDLGWYQQKPGKAPKILIYGASSLQSGVPSRFSGSGSGTDFTFTISSLQPEDFATYYCLQEYNYPCTFGQGTKLEIK"
  pKd: 6.89
- Binder: "1H10 antibody (human CD33^PAN antibody clone, hybridoma-derived) (antibody, V domains shown) VH: QVQLVQSGAEVKKPGASVKVSCKGSGYIFTSYDMHWVRQAPGQGLEWMGIIDPSGGSTSYAQKFQGRVTMTRDTSMSTVYMELSSLRSEDTAVYYCTRDYSWSYFDYWGQGTLVTVSS VL: AIQMTQSPSSLSASVGDRVTITCRASQGIRIYLGWYQQKPGKAPKLLIYATSSLQSGVPSRFSGSGSGTDFTLTISSLQPEDFATYYCLQDYNYPWTFGQGTKVEIK"
  pKd: 7.38

Values from patent US20260265404A1
